Target: T1, human Claudin 3 (human, UniProt O15551 1-220)
T1 construct: forced expression in DG44 or Ba/F3 cells, or endogenous on MCF7 cells; four-transmembrane tight junction protein; also called hCLDN3; hCLN3
T1 sequence: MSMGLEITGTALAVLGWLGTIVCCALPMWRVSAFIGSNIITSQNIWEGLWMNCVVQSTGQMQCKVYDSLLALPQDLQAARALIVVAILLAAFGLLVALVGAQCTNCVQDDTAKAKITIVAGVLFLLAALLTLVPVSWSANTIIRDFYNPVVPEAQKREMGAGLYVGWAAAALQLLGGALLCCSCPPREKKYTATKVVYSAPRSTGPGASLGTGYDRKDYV
Experiment: flow cytometry, hCLDN3/DG44 cells, 5 ug/mL antibody
# Lookup of reported X geometric mean keyed by entry
Give the figure by itself; no unit, no explanation.

Query string: Given CDN35 (antibody, V domains shown, mouse monoclonal, IgG2a/IgK) VH: EVQLQQSGPELVKPGASVKMSCKASGYTFTDYYMNWVKQSHGKSLEWIGRVNPSNGGTSYNQKFKGKATLTVDKSLSTAYMQLNSLTSEDSAVYYCARGLAYYSNSFTYWGQGTLVTVSA VL: KIVLTQSPASLAVSLRQRATISCRASESVDSYGNSFMHWYQQKPGQPPKLLIYRASNLESGVPARFSGSGSRTDFTLTIDPVEADDAATYYCQQNNEDPWTFGGGTKLEIKR , state its recorded X geometric mean.
Result string: 2300

Could you now consider this next binder?
Query string: Could you share which X geometric mean value was measured for CDN16 (antibody, mouse IgG2b, kappa, V domains shown, mouse monoclonal, IgG2b/IgK) VH: EVQLQQSGPELVKPGASVKMSCKASGYTFTDYYMNWVKQSHGKSLEWIGRVNPSNGGTSYNQKFKGKATLTVDKSLSTAYMQLNSLTSEDSAVYYCARGLAYYSNSFVYWGQGTLVTVSA VL: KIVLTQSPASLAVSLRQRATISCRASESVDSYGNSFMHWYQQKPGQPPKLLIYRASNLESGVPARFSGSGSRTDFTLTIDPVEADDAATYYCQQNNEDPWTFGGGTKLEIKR ?
Result string: 2480

Every entry's value here was drawn from patent US20100111852A1.
